Tested target: BRD4 (BD1) (Homo sapiens, UniProt O60885)
Construct: amino acids 67-152, longer constructs also being possible, preferably amino acids 44-168; made in house; host or cells: E. coli
Run description: Binding assay BRD4/acetylated peptide H4 (TR-FRET protein-protein interaction assay)
Measurement conditions: BRD4 (BD1) / acetylated histone H4 peptide, TR-FRET; read-out: IC50 (BRD4)
Parameter measured: IC50

Study these solved cases before continuing.
Cc1noc(C[C@@H]2N=C(c3ccc(Cl)cc3)c3c(cn(C)c3C)-n3c(C)nnc32)n1 :: 20 nM
Cc1nnc2n1-c1cn(C)nc1C(c1ccc(Cl)cc1)=NC2CC(=O)N1CCOCC1 (stereo not shown) :: 700 nM
Cc1c2c(cn1C)-n1c(C)nnc1[C@H](Cc1nc(C(C)C)no1)N=C2c1ccc(Cl)cc1 :: 30 nM
Cc1noc(CC2N=C(c3ccc(Cl)cc3)c3c(cn(C)c3C)-n3c(C)nnc32)n1 (stereo not shown) :: 90 nM
Cc1c2c(cn1C)-n1c(C)nnc1C(Cc1nc(C(C)(C)C)no1)N=C2c1ccc(Cl)cc1 (stereo not shown) :: 490 nM
Cc1c2c(cn1C)-n1c(C)nnc1[C@H](CC(=O)N(C)CC1(C)COC1)N=C2c1ccc(Cl)cc1 :: 220 nM

Problem: Can you share its IC50? I mean this compound: CCNC(=O)C[C@@H]1N=C(c2ccc(Cl)cc2)c2c(cn(C)c2C)-n2c(C)nnc21
Result: 170 nM

---

Reported pIC50 values follow for various molecules
Test system: MOLP-8 cells
Run description: Cell proliferation assay (alamarBlue), MOLP-8
Format: cell-based
Measurement conditions: Homo sapiens, Multiple myeloma, 120 hours, inhibition of cell proliferation
The scale used: pIC50 is minus the common logarithm of the concentration in molar units.

Problem: Can you share its pIC50? I mean this molecule: Cc1c2c(cn1C)-n1c(C)nnc1[C@H](CC(=O)N1CC(F)C1)N=C2c1ccc(Cl)cc1
Result: 6.43

Problem: Can you share its pIC50? I mean this molecule: Cc1noc(C[C@@H]2N=C(c3ccc(Cl)cc3)c3c(cn(C)c3C)-n3c(C)nnc32)n1
Result: 7.30

Problem: Can you share its pIC50? I mean this molecule: CCc1noc(C[C@@H]2N=C(c3ccc(Cl)cc3)c3c(cn(C)c3C)-n3c(C)nnc32)n1
Result: 7.40

Problem: Can you share its pIC50? I mean this molecule: Cc1c2c(cn1C)-n1c(C)nnc1[C@H](CC(=O)OC(C)(C)C)N=C2c1ccc(Cl)cc1
Result: 6.72

Problem: Can you share its pIC50? I mean this molecule: Cc1c2c(cn1C)-n1c(C)nnc1[C@H](Cc1nc(C(C)C)no1)N=C2c1ccc(Cl)cc1
Result: 7.30

Problem: Can you share its pIC50? I mean this molecule: COC(=O)C[C@@H]1N=C(c2ccc(Cl)cc2)c2nn(C)cc2-n2c(C)nnc21
Result: 6.35

Problem: Can you share its pIC50? I mean this molecule: Cc1c2c(cn1C)-n1c(C)nnc1[C@H](CC(=O)N1CCS(=O)(=O)CC1)N=C2c1ccc(Cl)cc1
Result: 6.36

---

System: LAPC-4 cells
Run description: Cell proliferation assay (alamarBlue), LAPC-4
Format: cell-based
Measurement conditions: Homo sapiens, LAPC4, Prostate, 1 nM methyltrienolone, 168 hours, inhibition of cell proliferation
Parameter measured: pIC50
The scale used: pIC50 is minus the common logarithm of the concentration in molar units.

Study these solved cases before continuing.
Cc1c2c(cn1C)-n1c(C)nnc1[C@H](CC(=O)Nc1ccc3c(c1)CC(=O)N3)N=C2c1ccc(Cl)cc1 :: 7.05
Cc1c2c(cn1C)-n1c(C)nnc1[C@H](CC(=O)N1CCC(=O)C1)N=C2c1ccc(Cl)cc1 :: 6.66
COC(=O)C[C@@H]1N=C(c2ccccc2)c2c(cn(C)c2C)-n2c(C)nnc21 :: 7.52
Cc1c2c(cn1C)-n1c(C)nnc1[C@H](CC(=O)N1CCN(C(=O)OC(C)(C)C)CC1)N=C2c1ccc(Cl)cc1 :: 6.47
Cc1c2c(cn1C)-n1c(C)nnc1[C@H](CC(=O)N1CCOCC1)N=C2c1ccc(Cl)cc1 :: 6.62

Problem: Can you share its pIC50? I mean this compound: Cc1c2c(cn1C)-n1c(C)nnc1[C@H](CC(=O)N(C)CC1(C)COC1)N=C2c1ccc(Cl)cc1
Result: 6.09

Problem: Can you share its pIC50? I mean this compound: Cc1c2c(cn1C)-n1c(C)nnc1C(Cc1nc(C(C)(C)C)no1)N=C2c1ccc(Cl)cc1 (centres unmarked)
Result: 6.46

Problem: Can you share its pIC50? I mean this compound: Cc1c2c(cn1C)-n1c(C)nnc1[C@H](CC(=O)N1CC(F)C1)N=C2c1ccc(Cl)cc1
Result: 6.43

Problem: Can you share its pIC50? I mean this compound: Cc1c2c(cn1C)-n1c(C)nnc1[C@H](CC(=O)N1CCS(=O)(=O)CC1)N=C2c1ccc(Cl)cc1
Result: 6.44

Problem: Can you share its pIC50? I mean this compound: Cc1noc(CC2N=C(c3ccc(Cl)cc3)c3c(cn(C)c3C)-n3c(C)nnc32)n1 (centres unmarked)
Result: 7.10

Problem: Can you share its pIC50? I mean this compound: Cc1c2c(cn1C)-n1c(C)nnc1[C@H](CC(=O)OC(C)(C)C)N=C2c1ccc(Cl)cc1
Result: 7.00

Problem: Can you share its pIC50? I mean this compound: Cc1c2c(cn1C)-n1c(C)nnc1[C@H](CC(=O)N1CC(Oc3ccccc3)C1)N=C2c1ccc(Cl)cc1
Result: 6.39

Problem: Can you share its pIC50? I mean this compound: COC(=O)C[C@@H]1N=C(c2ccc(Cl)cc2)c2c(cn(C)c2C)-n2c(C)nnc21
Result: 7.30

Problem: Can you share its pIC50? I mean this compound: Cc1c2c(cn1C)-n1c(C)nnc1[C@H](CC(=O)N1CCN3C(=O)CCC3C1)N=C2c1ccc(Cl)cc1 (single isomer, unassigned; (-))
Result: 6.33

Problem: Can you share its pIC50? I mean this compound: CC(=O)N1CC(NC(=O)C[C@@H]2N=C(c3ccc(Cl)cc3)c3c(cn(C)c3C)-n3c(C)nnc32)C1
Result: 6.26

Problem: Can you share its pIC50? I mean this compound: COC(=O)C[C@@H]1N=C(c2ccc(Cl)cc2)c2nn(C)cc2-n2c(C)nnc21
Result: 6.60

Problem: Can you share its pIC50? I mean this compound: Cc1c2c(cn1C)-n1c(C)nnc1[C@H](CC(=O)N1CCOCC1)N=C2c1ccccc1
Result: 6.15

---

Test system: MOLM-13 cells
Run description: Cell proliferation assay (alamarBlue), MOLM-13
Format: cell-based
Measurement conditions: Homo sapiens, Leukaemia, 96 hours, inhibition of cell proliferation
Param label: returns 1 when IC50 < 0.5 µM, returns 0 otherwise, including exact equality.

Cc1c2c(cn1C)-n1c(C)nnc1[C@H](CC(=O)N(C)CC1(C)COC1)N=C2c1ccc(Cl)cc1 :: 0

Problem: Dear reviewer, please state whether Cc1c2c(cn1C)-n1c(C)nnc1[C@H](Cc1nc(C(C)C)no1)N=C2c1ccc(Cl)cc1 has IC50 strictly beneath 0.5 µM.
Result: 1

Problem: Dear reviewer, please state whether Cc1c2c(cn1C)-n1c(C)nnc1[C@H](CC(=O)Nc1ccc3c(c1)CC(=O)N3)N=C2c1ccc(Cl)cc1 has IC50 strictly beneath 0.5 µM.
Result: 1

---

System: MOLM-13 cells
Run description: Cell proliferation assay (alamarBlue), MOLM-13
Assay type: cell-based
Measurement conditions: Homo sapiens, Leukaemia, 96 hours, inhibition of cell proliferation
Parameter measured: pIC50
The scale used: pIC50 is minus the common logarithm of the concentration in molar units.

Problem: Can you share its pIC50? I mean this molecule: CCNC(=O)C[C@@H]1N=C(c2ccc(Cl)cc2)c2c(cn(C)c2C)-n2c(C)nnc21 [Example 10]
Result: 6.35

---

System: MOLM-13 cells
Run description: Cell proliferation assay (alamarBlue), MOLM-13
Type: cell-based
Measurement conditions: Homo sapiens, Leukaemia, 96 hours, inhibition of cell proliferation
Parameter measured: pIC50
The scale used: pIC50 is minus the common logarithm of the concentration in molar units.

Study these solved cases before continuing.
Cc1c2c(cn1C)-n1c(C)nnc1[C@H](CC(=O)N1CCN3C(=O)CCC3C1)N=C2c1ccc(Cl)cc1 (single isomer, unassigned; (-)) [Example 23] :: 6.06
Cc1c2c(cn1C)-n1c(C)nnc1[C@H](CC(=O)N1CCN(C(=O)OC(C)(C)C)CC1)N=C2c1ccc(Cl)cc1 [Example 22] :: 6.14
CC(=O)N1CC(NC(=O)C[C@@H]2N=C(c3ccc(Cl)cc3)c3c(cn(C)c3C)-n3c(C)nnc32)C1 [Example 9] :: 6.21
COC(=O)C[C@@H]1N=C(c2ccc(Cl)cc2)c2nn(C)cc2-n2c(C)nnc21 [Example 6] :: 6.35
Cc1c2c(cn1C)-n1c(C)nnc1[C@H](CC(=O)N1CCS(=O)(=O)CC1)N=C2c1ccc(Cl)cc1 [Example 8] :: 6.25

Problem: Can you share its pIC50? I mean this compound: Cc1c2c(cn1C)-n1c(C)nnc1[C@H](CC(=O)N1CC(Oc3ccccc3)C1)N=C2c1ccc(Cl)cc1 [Example 20]
Result: 6.04

Problem: Can you share its pIC50? I mean this compound: Cc1noc(C[C@@H]2N=C(c3ccc(Cl)cc3)c3c(cn(C)c3C)-n3c(C)nnc32)n1 [Example 26]
Result: 7.10

Problem: Can you share its pIC50? I mean this compound: CCc1noc(CC2N=C(c3ccc(Cl)cc3)c3c(cn(C)c3C)-n3c(C)nnc32)n1 (centres unmarked) [Example 27]
Result: 7.00

Problem: Can you share its pIC50? I mean this compound: COC(=O)C[C@@H]1N=C(c2ccc(Cl)cc2)c2c(cnn2C)-n2c(C)nnc21 [Example 7]
Result: 6.13

Problem: Can you share its pIC50? I mean this compound: Cc1c2c(cn1C)-n1c(C)nnc1C(Cc1nc(C3CC3)no1)N=C2c1ccc(Cl)cc1 (centres unmarked) [Example 24]
Result: 7.10

Problem: Can you share its pIC50? I mean this compound: COC(=O)C[C@@H]1N=C(c2ccccc2)c2c(cn(C)c2C)-n2c(C)nnc21 [Example 2]
Result: 6.48

Problem: Can you share its pIC50? I mean this compound: COC(=O)C[C@@H]1N=C(c2ccc(Cl)cc2)c2c(cn(C)c2C)-n2c(C)nnc21 [Example 1]
Result: 6.89

Problem: Can you share its pIC50? I mean this compound: Cc1noc(CC2N=C(c3ccc(Cl)cc3)c3c(cn(C)c3C)-n3c(C)nnc32)n1 (centres unmarked) [Example 25]
Result: 6.89

Problem: Can you share its pIC50? I mean this compound: Cc1c2c(cn1C)-n1c(C)nnc1[C@H](CC(=O)OC(C)(C)C)N=C2c1ccc(Cl)cc1 [Example 3]
Result: 6.68

Problem: Can you share its pIC50? I mean this compound: Cc1nnc2n1-c1cn(C)nc1C(c1ccc(Cl)cc1)=NC2CC(=O)N1CCOCC1 (centres unmarked) [Example 16]
Result: 5.34

Problem: Can you share its pIC50? I mean this compound: Cc1c2c(cn1C)-n1c(C)nnc1C(Cc1nc(C(C)(C)C)no1)N=C2c1ccc(Cl)cc1 (centres unmarked) [Example 31]
Result: 6.31

Source: patent US20150376196A1
